The reader will find reported Average EC50, cAMP in GLUTag cells values listed item by item below.
Biological target: T1, GIP receptor of GLUTag cells (murine (the cell line is stated to be …, UniProt Q0P543 19-460))
T1 sequence (looked up): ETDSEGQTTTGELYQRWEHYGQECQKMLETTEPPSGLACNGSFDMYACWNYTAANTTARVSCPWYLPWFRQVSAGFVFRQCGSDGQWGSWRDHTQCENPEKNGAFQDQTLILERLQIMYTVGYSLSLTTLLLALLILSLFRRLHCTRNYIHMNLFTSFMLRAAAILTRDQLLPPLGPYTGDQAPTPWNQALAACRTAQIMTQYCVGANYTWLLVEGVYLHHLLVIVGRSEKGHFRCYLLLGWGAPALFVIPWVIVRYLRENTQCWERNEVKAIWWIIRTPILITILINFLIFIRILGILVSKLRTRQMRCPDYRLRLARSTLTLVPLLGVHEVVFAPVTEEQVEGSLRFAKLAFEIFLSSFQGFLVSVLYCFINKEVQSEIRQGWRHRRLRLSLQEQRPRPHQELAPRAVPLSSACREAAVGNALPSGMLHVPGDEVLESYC
Assay: cell-based or functional assay
Answer in nM, number only, no unit symbol.

YXEGTFTSDYSIXLDKIAQKAXVQWLIAGGPSSGAPPPS (Aib at positions 2 and 13; K at position 20 conjugated at the epsilon-amino group with ([2-(2-Amino-ethoxy)-ethoxy]-acetyl)2-(γGlu)2-CO-(CH2)16-CO2H; 1-Nal at position 22; C-terminal primary amide, Synthetic acylated peptide, trifluoroacetate salt) [Example 7]    2750
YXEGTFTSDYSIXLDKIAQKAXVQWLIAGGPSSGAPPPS (Aib at positions 2 and 13; K at position 20 conjugated at the epsilon-amino group with ([2-(2-Amino-ethoxy)-ethoxy]-acetyl)2-(γGlu)2-CO-(CH2)18-CO2H; 1-Nal at position 22; C-terminal primary amide, Synthetic acylated peptide, trifluoroacetate salt) [Example 2]    2920
YXEGTFTSDYSIXLDKIAQKAFVQWLIAGGPSSGAPPPS (Aib at positions 2 and 13; K at position 20 conjugated at the epsilon-amino group with ([2-(2-Amino-ethoxy)-ethoxy]-acetyl)2-(γGlu)1-CO-(CH2)18-CO2H; C-terminal primary amide) [Example 1]    1490
YXEGTFTSDYSIXLDKIAQKAFVQWLIAGGPSSGAPPPS (Aib at positions 2 and 13; K at position 20 conjugated at the epsilon-amino group with ([2-(2-Amino-ethoxy)-ethoxy]-acetyl)2-(γGlu)1-CO-(CH2)16-CO2H; C-terminal primary amide, Synthetic acylated peptide, trifluoroacetate salt) [Example 3]    1610

Short answer for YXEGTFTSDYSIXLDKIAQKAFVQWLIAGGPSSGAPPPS (Aib at positions 2 and 13; K at position 20 conjugated at the epsilon-amino group with ([2-(2-Amino-ethoxy)-ethoxy]-acetyl)2-(γGlu)2-CO-(CH2)16-CO2H; C-terminal primary amide, Synthetic acylated peptide, trifluoroacetate salt) [Example 4] : Average EC50, cAMP in GLUTag cells was 2190
